All values here come from PubChem BioAssay (NCATS).

# System: NIH3T3
# measurement.protocol: Cytotoxic Profiling of Annotated Libraries Using Quantitative High-Throughput Screening (AID 1296008); also: % is scaled to controls: 0 for no effect and ±100 for the full control effect; nearly all actives have a fitted effect of over 60% in size
# cond: Five cell lines viability, CellTiter-Glo ATP luminescence, 48-72 h; stronger effect = lower value
Records with an inconclusive call do not appear.
Provide the recorded max response for the entries that follow.
Answers are plain numbers, in %.

Illustrative cases are given below, each with its answer.
compound	unit.text	max response
Cc1cccc(OCC(O)CNC(C)(C)C)c1C (stereo not drawn)	%	0.115
O=C(O)CCCC[P+](c1ccccc1)(c1ccccc1)c1ccccc1	%	3.89
Nc1c(NC/C=C\COc2cc(CN3CCCCC3)ccn2)c(=O)c1=O	%	0.202
O=C(O)CNC(=O)CNC(=O)CNC(=O)CSC(=O)c1ccccc1	%	1.99
CN1[C@@H]2CC[C@H]1CC(NC(=O)n1c(=O)[nH]c3ccccc31)C2 (stereo partly drawn)	%	1.08

Provide max response for all items below, preserving their order.
1. CCOc1ccc(NS(=O)(=O)c2ccc(N)cc2)nn1
2. CCCCCCCCCCCCCCCCCCN(C)C

Output:
[3.16, 0.657]

---

# measurement.protocol: Primary qHTS for inhibitors of La Crosse Virus (LACV) - induced cell death in SH-SY5Y cells (AID 1508616);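 also: top concentration of the series differs between compounds; 0% = infected DMSO wells and 100% = uninfected DMSO wells; higher means more rescue of cells from virus-induced death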
# cond: SH-SY5Y LACV cytopathicity rescue, ATP luminescence, 6 d; series mostly up to 4.29 µM
Inconclusive results are not listed. The source made the active and inactive calls. Calls come from the whole dose curve; as a rule, active = well fitted inhibition curve with a large enough effect; inconclusive = small, poorly fitted or top-dose-only effect; inactive = no such curve, though single readings can be large or run the other way.
measurement.name: activity change

Illustrative cases are given below, each with its answer.
molecule	activity change
CNC(=O)c1cnn(-c2nc(N)c3ncn([C@@H]4O[C@H](CO)[C@@H](O)[C@H]4O)c3n2)c1	inactive
O=C(O)C(=O)Nc1cccc(-c2nn[nH]n2)c1	inactive
CCN1CCCC1CN (configuration not stated)	inactive
O=C(O)Cc1ccccc1Oc1ccc(Cl)cc1Cl	inactive

Provide activity change for all items below, preserving their order.
1. COC(=O)c1ccc(NC(C)=O)cc1OC
2. CC(C(O)c1ccccc1)N(C)CCOC(c1ccccc1)c1ccccc1 (configuration not stated)
3. CCOC(=O)c1cc(=O)c2c(OCC(COc3cccc4oc(C(=O)OCC)cc(=O)c34)OC(=O)[C@@H](N)CCCCN)cccc2o1

Output:
["inactive", "inactive", "inactive"]

Provide activity change for all items below, preserving their order.
1. CCS(=O)(=O)c1ccc(OC)c(C(=O)OC)c1
2. CC(=O)/C=C/C=C1/C2CCC(C2)C1(C)C (configuration not stated)

Output:
inactive
inactive

---

# measurement.protocol: qHTS of pediatric cancer cell lines to identify multiple opportunities for drug repurposing: Confirmatory screen for Rh18 cells (AID 1347125);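 also: cells exposed to compound for 48 h; nearly all actives have a fitted effect of over 55% in size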
# cond: Rh18 rhabdomyosarcoma cells, viability; series mostly up to 45.9 µM
Records with an inconclusive call do not appear. Activity calls are given as the source filed them. Calls come from the whole dose curve; as a rule, active = well fitted cell-killing curve with a large enough effect; inconclusive = small, poorly fitted or top-dose-only effect, or effect the other way; inactive = flat fitted curve, though single readings scatter.
Return exactly one item of 1 for active, -1 for inactive

compound	class.name
CCc1cc2cc(OC)c(OC)cc2c(Cc2ccccc2)n1	-1

Input: I'd appreciate the recorded outcome for CC(C)(C)CC(=O)OCC(=O)[C@@]1(O)CC[C@H]2[C@@H]3CCC4=CC(=O)C=C[C@]4(C)[C@H]3[C@@H](O)C[C@@]21C from this test.
Output: -1

Input: I'd appreciate the recorded outcome for Cc1cc(OCCOCC[N+](C)(C)Cc2ccccc2)ccc1C(C)(C)CC(C)(C)C from this test.
Output: 1

Input: I'd appreciate the recorded outcome for CCC1(c2cnc[nH]2)Cc2ccccc2C1 from this test.
Output: 1

Input: I'd appreciate the recorded outcome for C[C@H]1C[C@H]2[C@@H]3CCC4=CC(=O)C=C[C@]4(C)[C@H]3C(=O)C[C@]2(C)[C@@]1(O)C(=O)CO from this test.
Output: 1

Input: I'd appreciate the recorded outcome for C[C@H]1C[C@@H]2[C@H]([C@@H](O)C[C@@]3(C)[C@H]2CC[C@]3(O)C(=O)CO)[C@@]2(C)C=CC(=O)C=C12 from this test.
Output: -1

Input: I'd appreciate the recorded outcome for CO[C@@H]1[C@@H](OC)[C@H](C)[C@@](O)(CC(=O)O)O[C@H]1[C@H](C)[C@H]1O[C@@]2(CC[C@@](C)([C@H]3CC[C@@](C)([C@@H]4O[C@@H]([C@H]5O[C@](C)(O)[C@H](C)C[C@@H]5C)C[C@@H]4OC4C[C@H](OC)[C@@H](OC)[C@H](C)O4)O3)O2)C[C@H](O)[C@H]1C (some centres undefined) from this test.
Output: 1

Input: I'd appreciate the recorded outcome for COc1cc(/C=C/C(N)=O)cc(OC)c1OC from this test.
Output: -1

Input: I'd appreciate the recorded outcome for Nc1c2ccccc2nc2ccccc12 from this test.
Output: 1
